System: CD3/IL2 stimulated PBMC cells
PROTOCOL_SUMMARY: IFNγ release from CD3/IL2 stimulated PBMC cells (assay (a))
Format: cell-based
CONDITIONS: Homo sapiens, CD3/IL2 stimulation, 48 h, ELISA
pIC50: −log10 of the molar value.
Classification field: met = pIC50 at or over 7; not met = pIC50 under 7.

1) CCc1cc(O)c(F)cc1-c1ccc2c(-c3nc4c([nH]3)CCN(C(=O)c3cnc(N(CCOC)CCOC)cn3)C4)n[nH]c2c1 = met
2) CCc1cc(O)c(F)cc1-c1ccc2c(-c3nc4c([nH]3)CCN(C(=O)c3cnc(NCCOCCOCCOC)cn3)C4)n[nH]c2c1 = met
3) CCc1cc(O)c(F)cc1-c1ccc2c(-c3nc4c([nH]3)CCN(C(=O)c3cnc(N5CC[S+]([O-])CC5)cn3)C4)n[nH]c2c1 [Example 2(e)] = met
4) CCc1cc(O)c(F)cc1-c1ccc2c(-c3nc4c([nH]3)CCN(C(=O)c3cnc(N5C[C@H](O)[C@@H](O)[C@H](O)[C@H]5CO)cn3)C4)n[nH]c2c1 (stereo in doubt) [Example 2(s)] = not met
5) CCc1cc(O)c(F)cc1-c1ccc2c(-c3nc4c([nH]3)CCN(C(=O)c3cnc(NCCN5CC[S+]([O-])CC5)cn3)C4)n[nH]c2c1 = not met
